B1: Ankyrin-1, residues 1405 to 1484; numbered along this chain, P16157 (parent)
chain: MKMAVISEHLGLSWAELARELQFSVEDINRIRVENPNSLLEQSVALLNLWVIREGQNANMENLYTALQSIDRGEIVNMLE

Variants of: B1
Procedure text: abundance fitness (aPCA) (normalised: wild type 0, dead -1); higher = more abundant; growth selection in yeast, the domain comes from the species named
Condition summary: Homo sapiens
Reported abundance fitness maps to class as: bin A = under -0.3, bin B = from -0.3 up to -0.05, bin C = -0.05 and over

INSERT INTO measurements (mutation_string, cat) VALUES
  ('V25H', 'bin C'),
  ('T65W', 'bin B'),
  ('D27K', 'bin A'),
  ('N59D', 'bin C'),
  ('N62I', 'bin C'),
  ('S38R', 'bin A'),
  ('I28L', 'bin A'),
  ('V44E', 'bin B'),
  ('I28C', 'bin B');
